Recorded values, source PubChem BioAssay (NCATS).

experimentDescription: Natriuretic polypeptide receptor (hNpr1) antagonism - Pilot counterscreen GloSensor control cell line (AID 1347045)
conditionDetails: HEK293 cGMP GloSensor cells, SNP-stimulated luminescence, 20 min; series mostly up to 38.3 µM
Results filed as inconclusive are left out. Activity calls are given as the source filed them. Calls follow the shape of the full dose curve.
The reply should be one of these categories: active, inactive

Observe how each entry below is paired with its result.
| molecule | group |
| --- | --- |
| CC(C)Oc1cccnc1N(C)C1CCN(Cc2ccccc2)CC1 | inactive |
| CNCCc1ccc(O)c(O)c1 | inactive |
| Cc1nccc2c1[nH]c1ccccc12 | inactive |
| NC(CCP(=O)(O)O)C(=O)O (configuration not stated) | inactive |
| C[C@@H]1O[C@H](C[N+](C)(C)C)C[C@H]1O | inactive |
| Clc1cnc(Oc2ccc(Oc3ncc(Cl)cc3Cl)cc2)c(Cl)c1 | inactive |

Request: How did this test come out for CS(=N)(=O)CC[C@H](N)C(=O)O (some centres not stated) ?
Response: inactive

Request: Now give it for CCCN(CCC)C1CCc2ccc(O)cc2C1 (configuration not stated) too.
Response: inactive

Request: Now give it for `CC1=NN=C(c2ccc(N)cc2)c2cc3c(cc2C1)OCO3` too.
Response: inactive

Request: Now give it for `Oc1ccc2c3c1O[C@H]1c4[nH]c5c(c4C[C@@]4(O)[C@@H](C2)N(CC2CC2)CC[C@]314)C[C@@]1(O)[C@H]2Cc3ccc(O)c4c3[C@@]1(CCN2CC1CC1)[C@H]5O4` too.
Response: inactive

Request: Now give it for `O=C(O)Cc1cnc[nH]1` too.
Response: inactive

Request: Now give it for `CN[C@@H]1C[C@@H](c2ccc(Cl)c(Cl)c2)c2ccccc21` too.
Response: active

Request: Now give it for CC(=O)[C@H]1CCC2C3CC[C@H]4C[C@H](O)CC[C@]4(C)C3CC[C@@]21C (some centres not stated) too.
Response: inactive

Request: Now give it for O=C(Cc1ccc(Cl)c(Cl)c1)N1CCCCC1CN1CCCC1 (configuration not stated) too.
Response: inactive

Request: Now give it for `NCCc1c[nH]c2ccc(O)cc12` too.
Response: inactive

Request: Now give it for `CC(=O)NCCc1c[nH]c2ccccc12` too.
Response: inactive

Request: Now give it for `NCc1cc(=O)[nH]o1` too.
Response: inactive
